Here, each record is paired with measured log10 of AUC(0-t) data.
PROTOCOL TEXT: Pharmacokinetics in ICR mice after intravenous and intragastric administration
Format: in vivo
STATED CONDITIONS: male, ICR, mouse, plasma, po, 5 mg/kg, ICR mice, PO 5 mg/kg, mean of 3 animals; read-out: AUC(0-t)
Log10 applied to AUC(0-t); unit prior to transform: ng·h/mL.

Illustrative cases are given below, each with its answer.
COc1cc(C(C)C)ccc1-c1nc2c(n1C(C)C)[C@@]1(C(=O)Nc3cc(Cl)ccc31)N(c1cc(Cl)ccc1C)C2=O ... 3.92
COc1ccc(-c2nc3c(n2C(C)C)[C@@]2(C(=O)Nc4cc(Cl)ccc42)N(c2cc(Cl)cnc2C)C3=O)c(OC)c1 ... 3.55
CCOc1ncc(-c2nc3c(n2C(C)C)[C@@]2(C(=O)Nc4cc(Cl)ccc42)N(c2cc(Cl)cnc2C)C3=O)c(OC)n1 ... 3.87
COc1cc(C2CC2)ncc1-c1nc2c(n1C(C)C)[C@@]1(C(=O)Nc3cc(Cl)ccc31)N(c1cc(Cl)ccc1C)C2=O ... 4.16

Sure, the documented log10 of AUC(0-t) for COc1cc(OC(C)C)ncc1-c1nc2c(n1C(C)C)[C@@]1(C(=O)Nc3cc(Cl)ccc31)N(c1cc(Cl)ccc1C)C2=O is 4.94

Sure, the documented log10 of AUC(0-t) for COc1nc(C2CC2)ncc1-c1nc2c(n1C(C)C)[C@@]1(C(=O)Nc3cc(Cl)ccc31)N(c1cc(Cl)ccc1C)C2=O is 4.62

----------
PROTOCOL TEXT: Pharmacokinetics in ICR mice after intravenous and intragastric administration
Assay type: in vivo
STATED CONDITIONS: male, ICR, mouse, plasma, po, 5 mg/kg, PO 5 mg/kg, ICR mice, individual animal
# binarize AUC(0-inf): threshold 7000 ng·h/mL inclusive, high side MET, low side NOT MET

COc1ccc(-c2nc3c(n2C(C)C)[C@@]2(C(=O)Nc4cc(Cl)ccc42)N(c2cc(Cl)ccc2C)C3=O)c(OC)c1 [Example S-9] ... NOT MET
COc1cc(OC)c(-c2nc3c(n2C(C)C)[C@@]2(C(=O)Nc4cc(Cl)ccc42)N(c2cc(Cl)ccc2C)C3=O)cn1 [Example S-11] ... MET
COc1ncc(-c2nc3c(n2C(C)C)[C@H](c2ccc(Cl)cc2)N(c2cc(Cl)cn(C)c2=O)C3=O)c(OC)n1 [HDM201, reference compound] ... NOT MET
COc1cc(N(C)C)ccc1-c1nc2c(n1C(C)C)[C@@]1(C(=O)Nc3cc(Cl)ccc31)N(c1cc(Cl)ccc1C)C2=O [Example S-23] ... MET

Next, consider the following molecule.
Exam item: Determine whether this molecule has AUC(0-inf) no lower than 7000 ng·h/mL: COc1ncc(-c2nc3c(n2C(C)C)[C@@]2(C(=O)Nc4cc(Cl)ccc42)N(c2cc(Cl)ccc2C)C3=O)c(OC)n1 [Example S-2]
Marked response: NOT MET

----------
PROTOCOL TEXT: Pharmacokinetics in ICR mice after intravenous and intragastric administration
Format: in vivo
STATED CONDITIONS: male, mouse, plasma; ICR mice, PO 5 mg/kg vs IV 2 mg/kg, from mean values; read-out: F* (bioavailability)
# binarize bioavailability: threshold 70% inclusive, high side Condition met, low side Condition not met

Exam item: Determine whether this molecule has bioavailability no lower than 70%: COc1cc(OC(C)C)ncc1-c1nc2c(n1C(C)C)[C@@]1(C(=O)Nc3cc(Cl)ccc31)N(c1cc(Cl)ccc1C)C2=O [Example S-69]
Marked response: Condition not met

Exam item: Determine whether this molecule has bioavailability no lower than 70%: COc1cc(OC)c(-c2nc3c(n2C(C)C)[C@@]2(C(=O)Nc4cc(Cl)ccc42)N(c2cc(Cl)ccc2F)C3=O)cn1 [Example S-133]
Marked response: Condition not met

Exam item: Determine whether this molecule has bioavailability no lower than 70%: COc1ncc(-c2nc3c(n2C(C)C)[C@@]2(C(=O)Nc4cc(Cl)ccc42)N(c2cc(F)cc(Cl)c2)C3=O)c(OC)n1 [Example S-45]
Marked response: Condition met

Exam item: Determine whether this molecule has bioavailability no lower than 70%: COc1nc(C2CC2)ncc1-c1nc2c(n1C(C)C)[C@@]1(C(=O)Nc3cc(Cl)ccc31)N(c1cc(Cl)ccc1C)C2=O [Example S-121]
Marked response: Condition not met

Exam item: Determine whether this molecule has bioavailability no lower than 70%: COc1cc(OC)c(-c2nc3c(n2C(C)C)[C@@]2(C(=O)Nc4cc(Cl)ccc42)N(c2cccc(Cl)c2)C3=O)cn1 [Example S-115]
Marked response: Condition not met

Exam item: Determine whether this molecule has bioavailability no lower than 70%: CCOc1cc(OC)c(-c2nc3c(n2C(C)C)[C@@]2(C(=O)Nc4cc(Cl)ccc42)N(c2cc(Cl)ccc2F)C3=O)cn1 [Example S-98]
Marked response: Condition met

Exam item: Determine whether this molecule has bioavailability no lower than 70%: COc1cc(C2CC2)ncc1-c1nc2c(n1C(C)C)[C@@]1(C(=O)Nc3cc(Cl)ccc31)N(c1cc(Cl)ccc1C)C2=O [Example S-103]
Marked response: Condition met

Exam item: Determine whether this molecule has bioavailability no lower than 70%: CCOc1cc(OC)c(-c2nc3c(n2C(C)C)[C@@]2(C(=O)Nc4cc(Cl)ccc42)N(c2cc(Cl)ccc2C)C3=O)cn1 [Example S-72]
Marked response: Condition met
